Task for the reader: assign each of the following variants its reported abundance fitness.
B1: Cytoplasmic polyadenylation element-binding protein 2, residues 513 to 575; numbered along this chain, Q7Z5Q1 (parent)
chain: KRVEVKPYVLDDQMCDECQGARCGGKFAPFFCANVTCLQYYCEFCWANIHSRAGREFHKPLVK

Variants of: B1
experiment: abundance fitness (aPCA) (normalised: wild type 0, dead -1); higher = more abundant; growth selection in yeast, the domain comes from the species named
experimental setup: Homo sapiens
// return just the number, without any unit appended

Record request: abundance fitness value, item `C45H` -0.733

Look up abundance fitness for this variant: `Y41C` -0.365

Form field: reported abundance fitness of `C23G` -0.056

So what's the measured abundance fitness for this one? `C15V` -0.587

Record request: abundance fitness value, item `F44R` -0.038

Entry `G25L` has what abundance fitness? -0.207

Fill in: abundance fitness of `P7M` is ___ -0.259

Look up abundance fitness for this variant: `R55T` -0.165

Which abundance fitness value is on record for `F57L` ? 0.091

Return reported abundance fitness; argument: `I49Y` 0.026

Look at this variant and give its reported abundance fitness. `G25S` -0.138

Given the entry `N34A` , report its measured abundance fitness. -0.028

# query: abundance fitness of entry `W46T` -0.558

Given `C45E` , state its recorded abundance fitness. -1.16

Could you share which abundance fitness value was measured for `I49M` ? -0.184

Sample `N34P` — what was its abundance fitness? -0.878

Which value of abundance fitness has been reported for `T36W` in the records? -0.328

Report abundance fitness for `K59S` please. 0.021

Suppose we examine the variant `F31M` ; what abundance fitness value has been reported? -0.461

# get_value(readout='abundance fitness', item= `H50F` ) -0.904

Reported abundance fitness for `G25W` : what is it? -0.075

Item under review: `C15Q` . Reported abundance fitness? -0.55

If you can, please state the reported abundance fitness value of `F44P` . 0.082

abundance fitness lookup needed for `C18Y` , thanks. -0.966

Query (variant): `E43Q` ; field requested: abundance fitness -0.11

Which abundance fitness is reported for this variant? `C15P` -0.454

What measured abundance fitness goes with `G24P` ? -0.21

Looking for the measured abundance fitness of `E43F` , can you help? -0.298

What abundance fitness value was documented for this variant, `K26A` ? -0.016

Any idea what abundance fitness was measured for `C32N` ? -0.724

Sample `F27C` — what was its abundance fitness? 0.054

Field request: abundance fitness | item: `K63N` -0.091

Need abundance fitness of `A33S` , thanks. 0.061

Consider the variant `F30N` and give its measured abundance fitness. -0.081

# lookup: abundance fitness of `A47R` -0.041

abundance fitness for `D12H` ? 0.049

Looking for the measured abundance fitness of `Q19E` , can you help? 0.006

Look at this variant and give its reported abundance fitness. `P29N` -0.01

Query (variant): `V62D` ; field requested: abundance fitness -0.164

Look at this variant and give its reported abundance fitness. `K59D` -0.132

Item `Q13S` has what recorded abundance fitness? -0.144

What value of abundance fitness has been reported for the following variant? `P7E` 0.051

abundance fitness for `P7H` ? -0.086

Fill in the blank: the reported abundance fitness of `R55E` is ____. -0.142

Sample `R22K` — what was its abundance fitness? 0.006

Bench note: what abundance fitness did `Q19H` show? -0.134
